Origin of measurements: patent US20210179726A1

Target: T1, hCD27-muFc (human; mouse, UniProt P26842 20-192)
T1 construct: range 1-192; Secreted from HEK293, Protein A purified; not shown: mouse IgG1-Fc (muFc), residues 98 to 324 of UniProt P01868
T1 sequence (looked up): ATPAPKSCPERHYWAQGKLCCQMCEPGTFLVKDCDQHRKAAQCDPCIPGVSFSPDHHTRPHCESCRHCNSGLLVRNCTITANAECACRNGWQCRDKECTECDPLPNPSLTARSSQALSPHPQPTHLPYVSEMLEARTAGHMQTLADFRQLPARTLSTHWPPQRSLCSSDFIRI
Assay: BLI (Octet K2), antibody on Protein A biosensor, hCD27-muFc in solution
Quantity Measured: kon (M⁻¹ s⁻¹)
Number only, in M⁻¹ s⁻¹; omit the unit.

// sample 9424 (antibody, human IgG1, V domains shown, not shown: a dimerising Fc or GST, Humanized m2F11, human IgG1 / kappa) VH: EVHLQESGGGLVKPGGSLRLSCAASGFTFSSYAMSWVRQTPEKGLEWVAIIGDGDTYTYYPDSVKGRFTISRDNAKNTLYLQMNSLKSEDTAMYYCVRTRGGPFDYWGQGTTLTVSS VL: EILLTQSPAFMSATPGEKVTITCSASSSVGSMHWYQQKSGQSPRRLIYDTSKLASGVPDRFSGSGSGTDYTLTISSLEAEDAATYYCQQWSSIPPTFGAGTTLELK , its kon was 56500

Please find the next binder below.
// sample 14822 (antibody, human IgG1, V domains shown, not shown: a dimerising Fc or GST, Humanized m2F11, human IgG1 / kappa) VH: EVHLQESGGGLVKPGGSLRLSCAASGFTFSSYAMSWVRQMPGKGLEWVAIIGDGDTYTYYPDSVKGRFTISRDNSKNTLYLQMNSLKSEDTAMYYCVRTRGGPFDYWGQGTTLTVSS VL: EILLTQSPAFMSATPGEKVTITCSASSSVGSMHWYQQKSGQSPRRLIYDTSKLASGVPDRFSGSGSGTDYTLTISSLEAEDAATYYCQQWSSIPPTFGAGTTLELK , its kon was 97000
